Assay: Antioxidant activity assessed as DPPH radical scavenging activity incubated at room temperature for 20 mins by UV-visible spectrophotometry
Details: DPPH radical (cell-free)
Experimental endpoint: pIC50
Numbers only, as −log10 of the molar value.

Value sought for every listed compound: pIC50.
1. O=c1c(O)c(-c2ccco2)oc2ccccc12
2. O=c1c(O)c(-c2ccccc2)oc2cc(O)cc(O)c12
3. O=C(O)c1cc(O)c(O)c(O)c1
4. COc1ccc(/C=C/C(=O)c2ccccc2O)cc1

Result:
4.47
3.72
4.96
0.72

Value sought for every listed compound: pIC50.
1. O=Cc1ccco1
2. CC(C)(C)Oc1ccc(-c2oc3cc(O)cc(O)c3c(=O)c2O)cc1

Result:
1. 0.67
2. 3.34
